Cited source for all entries: patent US20050163796A1

target: HLA-B*0702 on HLA-B*0702 transfected TAP- T2 cells (human); assay: HLA-B*0702 stabilisation on T2-B*0702 cells, FACS with ME.1 mAb; concentration to reach 20% of maximal fluorescence relative to R10V; conditions: scale: ratio of concentrations, tested peptide / R10V reference
Parameter: RA (relative affinity). Scope: all listed entries.

{"Binder": "SPHPRISSEV (modifications not checked) [S10EV]", "RA (relative affinity)": 1.11}
{"Binder": "APTKAKRRVV (modifications not checked) [A10VV]", "RA (relative affinity)": 1.14}
{"Binder": "PPQGSQTHQV (modifications not checked) [P10QV]", "RA (relative affinity)": 8.97}
{"Binder": "IPLGDARLVI (modifications not checked) [I10VI]", "RA (relative affinity)": 2.33}
